These entries and their values trace back to the supplement of paper PMC10567573.

Give protein stability index for every item shown.
B1: KRT18 (parent)
chain: RAQYDELARKNREELDKYWSQQIE

Variants of: B1
assay-info: protein stability index of a GFP-peptide fusion (GPS, HEK-293T) (PSI 1-6); higher = more stable;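 also: lentivirally expressed fusions sorted by FACS into six bins by GFP to DsRed ratio, PSI derived from sequencing read proportions per bin multiplied by bin number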
condition: c terminus: a fixed tail appended
One number for each entry.

Worked examples follow.
INSERT INTO measurements (monomer_sequence, observed_value) VALUES
  ('RAQYDELARKNREELDKYWSQQFE [I23F]', 2.23),
  ('RAQYDELARKNREELDKYWSQQAE [I23A]', 3.97),
  ('RAQYDELAKKNREELDKYWSQQIE [R9K]', 3.52),
  ('RAQYTELARKNREELDKYWSQQIE [D5T]', 3.57);

Now consider a different variant.
stdin: May I ask what protein stability index has been recorded for RAQYDELARKNREELDLYWSQQIE [K17L] ?
stdout: 3.14
